- test_method_notes: BSK_3C_Proliferation: Cell Proliferation Assessment in the BioMAP Diversity Plus: 3C Assay (AID 2283006)
- condition_details: primary human endothelial cells (HUVEC)
The source made the active and inactive calls. The calls were made as follows: active = hit-call score of the fitted dose curve at least 0.9, where 1 is the maximum; inactive = score below 0.9.
Give one outcome, nothing more. List: active, inactive

| molecule_smiles | cat |
| --- | --- |
| Cc1cc(C(C)(C)c2ccc(O)c(C)c2)ccc1O | active |
| O=C(O)COc1cc(Cl)c(Cl)cc1Cl | inactive |
| CCOP(=O)(OCC)OC(=CCl)c1ccc(Cl)cc1Cl | active |
| Oc1c(Cl)cc(Cl)cc1Cl | inactive |
| CCCCCCCCCCCCc1cccc(S(=O)(=O)O)c1 | inactive |
| CCOC(=O)CCN(SN(C)C(=O)Oc1cccc2c1OC(C)(C)C2)C(C)C | active |

As a next step, examine the compound that follows.
For this compound, state the assay outcome: "OCCN(CCO)CCO"
inactive

Data provenance: PubChem BioAssay (EPA / NIEHS)
